# Test system: 188146-221-R-J1-PDC complex spheroid viability
# Protocol text: Anticancer human tumor 188146-221-R-J1-PDC patient-derived colon adenocarcinoma cell line growth inhibition [POLQ]
# Cond: second compound 0.1 µM; first compound 0.000316 µM; stronger effect = lower value
Property: viability, T/C (%)
Answer format: numeric, % implied, no suffix.

| Compound | Quantitative result |
| --- | --- |
| CC[C@@]1(O)C(=O)OCc2c1cc1n(c2=O)Cc2cc3c(CN(C)C)c(O)ccc3nc2-1 + COC1C(OC(N)=O)C(O)C(Oc2ccc3c(O)c(NC(=O)c4ccc(O)c(CC=C(C)C)c4)c(=O)oc3c2C)OC1(C)C | 97.7 |
| Cn1ncnc1[C@H]1c2n[nH]c(=O)c3cc(F)cc(c23)N[C@@H]1c1ccc(F)cc1 + Nc1ccc(C#CCN(C(=O)Cc2ncc(C(F)(F)F)cc2C(F)(F)F)c2ccc(F)cc2)nn1 | 111 |
| Cn1ncnc1[C@H]1c2n[nH]c(=O)c3cc(F)cc(c23)N[C@@H]1c1ccc(F)cc1 + COC1C(OC(N)=O)C(O)C(Oc2ccc3c(O)c(NC(=O)c4ccc(O)c(CC=C(C)C)c4)c(=O)oc3c2C)OC1(C)C | 108 |
| Cn1ncnc1[C@H]1c2n[nH]c(=O)c3cc(F)cc(c23)N[C@@H]1c1ccc(F)cc1 + Cc1cccc(N(C)C(=O)C2C(O)CCN2c2nc(C)cc(C(F)(F)F)c2C#N)c1 | 106 |
| CC[C@@]1(O)C(=O)OCc2c1cc1n(c2=O)Cc2cc3c(CN(C)C)c(O)ccc3nc2-1 + Cc1cccc(N(C)C(=O)C2C(O)CCN2c2nc(C)cc(C(F)(F)F)c2C#N)c1 | 112 |

Would you kindly look at the next entry?
Request: Field request: viability, T/C | item: CC[C@@]1(O)C(=O)OCc2c1cc1n(c2=O)Cc2cc3c(CN(C)C)c(O)ccc3nc2-1 + Nc1ccc(C#CCN(C(=O)Cc2ncc(C(F)(F)F)cc2C(F)(F)F)c2ccc(F)cc2)nn1
Result: 118

---

# System: 188146-221-R-J1-PDC complex spheroid viability
# Protocol text: Anticancer human tumor 188146-221-R-J1-PDC cell line growth inhibition [POLQ];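 further: spheroids exposed to compounds for seven days; 100% = DMSO vehicle control viability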
# Cond: second compound 0.1 µM; first compound 0.0316 µM; stronger effect = lower value
Property: viability, T/C (%)
Answer format: numeric, % implied, no suffix.

Before answering, review these 3 worked examples.
| Molecule | Property | Unit tag | Quantitative result |
| --- | --- | --- | --- |
| O=C(c1cc(Cc2n[nH]c(=O)c3ccccc23)ccc1F)N1CCN(C(=O)C2CC2)CC1 + Nc1ccc(C#CCN(C(=O)Cc2ncc(C(F)(F)F)cc2C(F)(F)F)c2ccc(F)cc2)nn1 | viability, T/C | % | 111 |
| O=c1[nH]cc(F)c(=O)[nH]1 + Nc1ccc(C#CCN(C(=O)Cc2ncc(C(F)(F)F)cc2C(F)(F)F)c2ccc(F)cc2)nn1 | viability, T/C | % | 121 |
| CC(C)n1c(=O)n(C)c2cnc3cc(F)c(-c4ccc(OCCCN5CCCCC5)nc4)cc3c21 + Nc1ccc(C#CCN(C(=O)Cc2ncc(C(F)(F)F)cc2C(F)(F)F)c2ccc(F)cc2)nn1 | viability, T/C | % | 101 |

Request: Field request: viability, T/C | item: C#Cc1c(F)ccc2cc(O)cc(-c3ncc4c(N5CC6CCC(C5)N6)nc(OCC56CCCN5CC(F)C6)nc4c3F)c12 (stereo unspecified) + Nc1ccc(C#CCN(C(=O)Cc2ncc(C(F)(F)F)cc2C(F)(F)F)c2ccc(F)cc2)nn1
Result: 99.9

Request: And for COc1cccc(OCCCN)c1-c1cc(Nc2cnc(C#N)cn2)n[nH]1 + Nc1ccc(C#CCN(C(=O)Cc2ncc(C(F)(F)F)cc2C(F)(F)F)c2ccc(F)cc2)nn1 ?
Result: 66.6

Request: And for C#Cc1c(F)ccc2cc(O)cc(-c3ncc4c(N5CC6CCC(C5)N6)nc(OCC56CCCN5CC(F)C6)nc4c3F)c12 (stereo unspecified) + COC1C(OC(N)=O)C(O)C(Oc2ccc3c(O)c(NC(=O)c4ccc(O)c(CC=C(C)C)c4)c(=O)oc3c2C)OC1(C)C ?
Result: 122

Request: And for COc1ccc([C@@H](O)c2cc(-c3ncnc4cc(N5CCOCC5)ccc34)c(F)cc2Cl)nn1 + COC1C(OC(N)=O)C(O)C(Oc2ccc3c(O)c(NC(=O)c4ccc(O)c(CC=C(C)C)c4)c(=O)oc3c2C)OC1(C)C ?
Result: 92.8

Request: And for CC1COCCN1c1cc(-c2ccnn2C)c2ccnc(-c3ccn[nH]3)c2n1 (stereo unspecified) + Cc1cccc(N(C)C(=O)C2C(O)CCN2c2nc(C)cc(C(F)(F)F)c2C#N)c1 ?
Result: 87.6

Request: And for O=C(Nc1ccc(O)c(NS(=O)(=O)c2ccc(F)cc2)c1)c1ccc(-c2ccccc2)cc1 + Nc1ccc(C#CCN(C(=O)Cc2ncc(C(F)(F)F)cc2C(F)(F)F)c2ccc(F)cc2)nn1 ?
Result: 105

Request: And for CC1COCCN1c1cc(C2(S(C)(=N)=O)CC2)nc(-c2ccnc3[nH]ccc23)n1 (stereo unspecified) + COC1C(OC(N)=O)C(O)C(Oc2ccc3c(O)c(NC(=O)c4ccc(O)c(CC=C(C)C)c4)c(=O)oc3c2C)OC1(C)C ?
Result: 114

Request: And for C#Cc1c(F)ccc2cc(O)cc(-c3ncc4c(N5CC6CCC(C5)N6)nc(OCC56CCCN5CC(F)C6)nc4c3F)c12 (stereo unspecified) + Cc1cccc(N(C)C(=O)C2C(O)CCN2c2nc(C)cc(C(F)(F)F)c2C#N)c1 ?
Result: 101

---

# Tested on: 188146-221-R-J1-PDC complex spheroid viability
# Protocol text: Anticancer human tumor 188146-221-R-J1-PDC cell line growth inhibition [POLQ];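 further: spheroids exposed to compounds for seven days; 100% = DMSO vehicle control viability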
# Cond: second compound 10 µM; first compound 0.316 µM; stronger effect = lower value
Property: viability, T/C

| Compound | Property | Result |
| --- | --- | --- |
| COc1cc(C2c3cc4c(cc3C(OC3OC5COC(C)OC5C(O)C3O)C3COC(=O)C23)OCO4)cc(OC)c1O (stereo not given) + COC1C(OC(N)=O)C(O)C(Oc2ccc3c(O)c(NC(=O)c4ccc(O)c(CC=C(C)C)c4)c(=O)oc3c2C)OC1(C)C | viability, T/C | 97.3% |
| COc1cc2cc(C(=O)CCC(=O)O)sc2cc1OC + Cc1cccc(N(C)C(=O)C2C(O)CCN2c2nc(C)cc(C(F)(F)F)c2C#N)c1 | viability, T/C | 92.3% |
| CC1COCCN1c1cc(C2(S(C)(=N)=O)CC2)nc(-c2ccnc3[nH]ccc23)n1 (stereo not given) + Cc1cccc(N(C)C(=O)C2C(O)CCN2c2nc(C)cc(C(F)(F)F)c2C#N)c1 | viability, T/C | 88.8% |

Request: What viability, T/C appears in the records for this compound with 188146-221-R-J1-PDC complex spheroid viability? CNCc1ccc(-c2[nH]c3cc(F)cc4c3c2CCNC4=O)cc1 + COC1C(OC(N)=O)C(O)C(Oc2ccc3c(O)c(NC(=O)c4ccc(O)c(CC=C(C)C)c4)c(=O)oc3c2C)OC1(C)C
Result: 110%

Request: And for CC1COCCN1c1cc(-c2ccnn2C)c2ccnc(-c3ccn[nH]3)c2n1 (stereo not given) + Cc1cccc(N(C)C(=O)C2C(O)CCN2c2nc(C)cc(C(F)(F)F)c2C#N)c1 ?
Result: 47.8%

---

# Test system: 188146-221-R-J1-PDC complex spheroid viability
# Protocol text: Anticancer human tumor 188146-221-R-J1-PDC cell line growth inhibition [POLQ];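 further: spheroids exposed to compounds for seven days; 100% = DMSO vehicle control viability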
# Cond: second compound 0.0316 µM; first compound 0.0316 µM; stronger effect = lower value
Property: viability, T/C (%)
Answer format: numeric, % implied, no suffix.

| Compound | viability, T/C [%] |
| --- | --- |
| Nc1ccn(C2OC(CO)C(O)C2(F)F)c(=O)n1 (stereo not drawn) + Nc1ccc(C#CCN(C(=O)Cc2ncc(C(F)(F)F)cc2C(F)(F)F)c2ccc(F)cc2)nn1 | 27.5 |
| O=C(Nc1ccc(O)c(NS(=O)(=O)c2ccc(F)cc2)c1)c1ccc(-c2ccccc2)cc1 + COC1C(OC(N)=O)C(O)C(Oc2ccc3c(O)c(NC(=O)c4ccc(O)c(CC=C(C)C)c4)c(=O)oc3c2C)OC1(C)C | 104 |

Request: Field request: viability, T/C | item: C#Cc1c(F)ccc2cc(O)cc(-c3ncc4c(N5CC6CCC(C5)N6)nc(OCC56CCCN5CC(F)C6)nc4c3F)c12 (stereo not drawn) + Nc1ccc(C#CCN(C(=O)Cc2ncc(C(F)(F)F)cc2C(F)(F)F)c2ccc(F)cc2)nn1
Result: 94.3

---

# Test system: 188146-221-R-J1-PDC complex spheroid viability
# Protocol text: Anticancer human tumor 188146-221-R-J1-PDC cell line growth inhibition [POLQ];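 further: spheroids exposed to compounds for seven days; 100% = DMSO vehicle control viability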
# Cond: second compound 0.1 µM; first compound 0.1 µM; stronger effect = lower value
viability, T/C for assorted compounds
Answer format: numeric, % implied, no suffix.

Before answering, review these 4 worked examples.
| Compound | Target desc | viability, T/C / % |
| --- | --- | --- |
| C#Cc1c(F)ccc2cc(O)cc(-c3ncc4c(N5CC6CCC(C5)N6)nc(OCC56CCCN5CC(F)C6)nc4c3F)c12 (stereo not given) + Cc1cccc(N(C)C(=O)C2C(O)CCN2c2nc(C)cc(C(F)(F)F)c2C#N)c1 | 188146-221-R-J1-PDC complex spheroid viability | 112 |
| O=C(c1cc(Cc2n[nH]c(=O)c3ccccc23)ccc1F)N1CCN(C(=O)C2CC2)CC1 + COC1C(OC(N)=O)C(O)C(Oc2ccc3c(O)c(NC(=O)c4ccc(O)c(CC=C(C)C)c4)c(=O)oc3c2C)OC1(C)C | 188146-221-R-J1-PDC complex spheroid viability | 102 |
| CCc1cc2c(N3CCc4c(cc(Cn5ccnc5)cc4-c4cn(C)nc4C(F)(F)F)C3=O)ccnc2c(OC)n1 + Nc1ccc(C#CCN(C(=O)Cc2ncc(C(F)(F)F)cc2C(F)(F)F)c2ccc(F)cc2)nn1 | 188146-221-R-J1-PDC complex spheroid viability | 116 |
| CC1COCCN1c1cc(C2(S(C)(=N)=O)CC2)nc(-c2ccnc3[nH]ccc23)n1 (stereo not given) + Nc1ccc(C#CCN(C(=O)Cc2ncc(C(F)(F)F)cc2C(F)(F)F)c2ccc(F)cc2)nn1 | 188146-221-R-J1-PDC complex spheroid viability | 92.6 |

Would you kindly look at the next entry?
Request: Field request: viability, T/C | item: CC1COCCN1c1cc(-c2ccnn2C)c2ccnc(-c3ccn[nH]3)c2n1 (stereo not given) + Nc1ccc(C#CCN(C(=O)Cc2ncc(C(F)(F)F)cc2C(F)(F)F)c2ccc(F)cc2)nn1
Result: 72.8
